# RP-LC retention time listing for each entry below
# assay.comment: gradient 5% acetonitrile 3 min, to 50% in 2 min, to 85% in 15 min, held 3 min, 100 µL/min
# experimental.context: column: Zorbax Extend-C18 2.1 x 50 mm; eluents: water / acetonitrile, 0.1% formic acid
Unit s implied. Number only.

Some compounds with recorded RP-LC retention time:
compound	meas.value
COc1cc2c(cc1CNC(=O)c1ccco1)OCCCO2	755
CCCn1cc(CCNS(=O)(=O)c2cc(C)c(C)cc2C)c2cccnc21	978
c1ccc(-c2nnc(-c3ccccc3)nn2)cc1	1220
COc1ccc(C2Cn3nnc(-c4nc(-c5ccc(Cl)cc5)no4)c3CO2)cc1 (stereo not given)	1240
COc1ccc(OC)c(CNC(=O)c2[nH]c(C)c(S(=O)(=O)N3CCCC3)c2C)c1	822

Given the entry `CCOC(=O)C(=O)N1CCN(c2ncnc3c2nnn3C)CC1` , report its measured RP-LC retention time.
643

And then `COc1cc(CNC(=O)c2nnc(-c3ccc(S(=O)(=O)N(C)C)cc3)o2)cc(OC)c1` , what is it?
846

One more compound: `O=C(Cn1nc(N2CCSCC2)c2ccccc2c1=O)Nc1ccc(Cl)cc1`
979

Same question, `CCc1nc2cc(-c3noc(CCc4ccccc4OC)n3)ccc2o1` this time
1190

Quick one: CCCNC(=O)C1CCCN(c2ccc(SCC(=O)NCc3ccc(OC)cc3)nn2)C1 (stereo not given)
595

---

# assay.comment: gradient 5% acetonitrile 3 min, to 50% in 2 min, to 85% in 15 min, held 3 min, 100 µL/min
# experimental.context: column: Zorbax Extend-C18 2.1 x 50 mm; eluents: water / acetonitrile, 0.1% formic acid
Let's look at some compounds and their measured RP-LC retention time.

compound	RP-LC retention time
CC1CCN(c2ncc3c(n2)CCC(C(=O)Nc2ccc(N4CCOCC4)cc2)C3)CC1 (centres undefined)	721 s
O=C(N[C@H]1C[C@@H]2C[C@H]1N(C(=O)NCCc1ccccc1)C2)c1ccccc1	740 s
COc1ccc(-c2cn3c(CC(=O)Nc4ccccc4)csc3n2)cc1	760 s
COc1ccc(-c2nc(C)cc(C)c2CNS(=O)(=O)c2cccc(C)c2)cc1	668 s
COCCN1CC2(CCN(S(=O)(=O)c3ccc(C(C)C)cc3)CC2)C1c1ccccc1 (centres undefined)	776 s

Consider now this further compound.
Look at this compound and give its reported RP-LC retention time. `Cc1nnc(NC(=O)CSc2cc(N3CCCC3)ncn2)s1`
577 s

---

# assay.comment: gradient 5% acetonitrile 3 min, to 50% in 2 min, to 85% in 15 min, held 3 min, 100 µL/min
# experimental.context: column: Zorbax Extend-C18 2.1 x 50 mm; eluents: water / acetonitrile, 0.1% formic acid
Mark each entry condition met if its RP-LC retention time sits below 1000 s, and condition not met for all others.

Observe how each entry below is paired with its result.
compound	group
CCN(C(=O)C1CCN(S(=O)(=O)c2ccc3c(c2)sc(=O)n3CC)CC1)c1ccccc1	condition met
O=c1c(S(=O)(=O)N2CCCC2)cccn1Cc1ccccc1Cl	condition met
Cc1ccc(-c2csc(NC(=O)COc3ccc(Cl)cc3Cl)n2)cc1	condition not met
CC(C)CC(=O)N1CCc2cc(CNS(=O)(=O)Cc3ccccc3)ccc21	condition met

API: the following record is the query input.
Does the reported RP-LC retention time of CC(C)C(=O)N1CCCC(c2nc(CNC(=O)C3CCC3)cs2)C1 (stereo unspecified) stay below 1000 s?
condition met

---

# assay.comment: gradient 5% acetonitrile 3 min, to 50% in 2 min, to 85% in 15 min, held 3 min, 100 µL/min
# experimental.context: column: Zorbax Extend-C18 2.1 x 50 mm; eluents: water / acetonitrile, 0.1% formic acid
As shown below, each of these compounds has a reported RP-LC retention time value.
Please give a number only; it is taken to be in s.

compound	reported.property	meas.value
COc1ccc(-c2nc3ncccn3c2Nc2ccccc2C)cc1	RP-LC retention time	705
COC(=O)CNC(=O)N1CCCCCC1c1ccc(Cl)cc1 (stereo not given)	RP-LC retention time	870
Cc1nc(-c2cc(S(=O)(=O)Nc3cc(F)ccc3F)c(C)s2)sc1C	RP-LC retention time	1100
Cc1cc(C(=O)Nc2nc3c(C)cc(Cl)cc3s2)on1	RP-LC retention time	985

Look up RP-LC retention time for this compound: `Cc1noc([C@@H]2CN(S(=O)(=O)c3cccs3)C[C@H]2C(N)=O)n1`
658

Also, `COc1cccc(-n2c(=O)c(C(=O)Nc3ccc(F)c(Cl)c3)c(O)c3cccnc32)c1` please.
1250

---

# assay.comment: gradient 5% acetonitrile 3 min, to 50% in 2 min, to 85% in 15 min, held 3 min, 100 µL/min
# experimental.context: column: Zorbax Extend-C18 2.1 x 50 mm; eluents: water / acetonitrile, 0.1% formic acid
Grouping key: RP-LC retention time. Bins: group 1 = under 700 s, group 2 = from 700 s up to 800 s, group 3 = 800 s and over

# count of solved cases: 5
compound	group
CS(=O)(=O)N1CCC(Cc2ccc(C(=O)O)cc2)CC1	group 2
O=C(NCCn1ccc2ccccc21)C(=O)c1c[nH]c2ccccc12	group 3
O=C(Cc1ccc(NC(=O)c2ncc(-c3ccccc3)o2)cc1)NCc1cccs1	group 3
COc1cccc(C(=O)Nc2nc3c(s2)CN(Cc2ccccc2)CC3)c1OC	group 1
O=C(CCc1c(-c2ccc(Cl)cc2)nc2ccccn12)NCC1CCCO1 (stereo not given)	group 1

Hi there! Could you help me figure out the category for `CC(C)Cn1cc(CCNC(=O)Nc2ccc(C(F)(F)F)cc2)c2cccnc21` please?
group 3

---

# assay.comment: gradient 5% acetonitrile 3 min, to 50% in 2 min, to 85% in 15 min, held 3 min, 100 µL/min
# experimental.context: column: Zorbax Extend-C18 2.1 x 50 mm; eluents: water / acetonitrile, 0.1% formic acid
reported.property: RP-LC retention time (s)
Enter your answer as a number in s; do not include the unit.

Some molecules with recorded RP-LC retention time:
molecule	units.symbol	meas.value
Cc1cc(SCC(=O)N2CCCc3ccccc32)nc(=O)[nH]1	s	677
CCCCC(C)C(=O)NC1CCN(C2=NS(=O)(=O)C(c3ccc(C)c(C)c3)=C2C)CC1 (stereo not given)	s	987
CC(C)c1c(C(=O)O)nnn1-c1ccc(F)c(F)c1	s	762
CCc1cc(=O)n(CC(=O)N2CCN(c3ccc(F)cc3)CC2)c(N2CCOCC2)n1	s	720
COc1ccc(-n2nc(SCC(=O)Nc3ccc(Cl)cc3)ccc2=O)cc1	s	629

Look up RP-LC retention time for this molecule: `O=C(c1ccoc1)N1CCc2cc(-c3csc(C4CC4)n3)ccc21`
1060

---

# assay.comment: gradient 5% acetonitrile 3 min, to 50% in 2 min, to 85% in 15 min, held 3 min, 100 µL/min
# experimental.context: column: Zorbax Extend-C18 2.1 x 50 mm; eluents: water / acetonitrile, 0.1% formic acid
Each record here notes measured RP-LC retention time.
The answer is to be given in s; state only the numeric part.

Requested field: RP-LC retention time. Item: `Cc1oc(C2CCN(S(=O)(=O)CCc3ccccc3)CC2)nc1C(=O)N(C)C`
816

Ok, now `O=C(CC(=O)Nc1ccccc1Cl)Nc1ccc2nc3n(c(=O)c2c1)CCCCC3`
772

Now consider `CCCCNC(=O)CCC1CCN(c2cc(NCCC)ncn2)CC1` .
658

---

# assay.comment: gradient 5% acetonitrile 3 min, to 50% in 2 min, to 85% in 15 min, held 3 min, 100 µL/min
# experimental.context: column: Zorbax Extend-C18 2.1 x 50 mm; eluents: water / acetonitrile, 0.1% formic acid
Decide using RP-LC retention time alone. Strictly below 800 s: condition met. Equal to or above 800 s: condition not met.

Given the entry `Cn1cc(C2=CCN(S(=O)(=O)c3ccc(C(C)(C)C)cc3)CC2)c2cccnc21` , would its reported RP-LC retention time be below 800 s?
condition not met

And what about the compound `COc1ccc(Cl)cc1NC(=O)c1cc(S(=O)(=O)N2CCC(C)CC2)cn1C` ?
condition not met

Again, but for `COc1cccc(-n2c(=O)c(C(=O)Nc3cc(F)ccc3F)c(O)c3cccnc32)c1`
condition not met

Next compound up: CCCC(NC(=O)CCc1ccccc1OC)C(=O)Nc1nc2ccccc2[nH]1 (stereo not given)
condition met

Follow-up item: `COc1ccc(NC(=O)Nc2c(-c3ccc(C)cc3)nc3ccccn23)cc1OC`
condition not met

Input Cn1cc(CN2CCCC(COc3ccccc3C(=O)N3CCCCC3)C2)c2ccccc21 (stereo not given)
condition met

Input `O=C(NCc1ccc(N2CCCCC2)cc1)c1ccc2ncnc(N3CCCC3)c2c1`
condition met

What do we get for COc1cc2c(cc1OC)C1C(C(=O)N3CCN(c4ccccn4)CC3)c3ccccc3C(=O)N1CC2 (stereo not given) ?
condition met

# iterate: `COc1ccc(Cl)cc1NS(=O)(=O)c1cc2c(s1)CCN(C(=O)C1CC1)C2`
condition not met

Could you do the same for `Cc1ccc(NS(=O)(=O)c2ccc3c(c2)C(=O)N(C)c2ncccc2O3)cc1F` , please?
condition not met

Next: `Cc1sc(NC(=O)COc2ccc(Cl)cc2)nc1-c1ccc2c(c1)NC(=O)CO2`
condition not met

Next: CC1CCCN(CCCNC(=O)CCC(=O)N2CCc3c(c(C(=O)N4CCCC4)nn3C)C2)C1 (stereo not given)
condition met

Another compound to check: COc1ccc(C2CC(=O)c3c([nH]c(C(=O)OCC4CCCO4)c3C)C2)cc1OC (stereo not given)
condition not met

Also need `Cc1noc(C)c1CC(=O)NCc1cccnc1Oc1ccccc1` , thanks.
condition met

Ok, now `O=C(Cc1ccsc1)N1CCOc2ccc(N3CCOCC3)cc2C1`
condition met

Please give the result for COc1ccc(CCN2CC(C(=O)O)CC2=O)cc1OC (stereo not given) too.
condition met

Likewise for `O=C(NCC1(c2cccs2)CC1)c1ccc(F)c(F)c1` ?
condition not met

// data source = the METLIN SMRT retention time set (Domingo-Almenara et al. 2019)
